Where these numbers come from: patent US20090203886A1

Target: T1, human CD20 antigen (human, UniProt P11836 1-297)
T1 sequence (looked up): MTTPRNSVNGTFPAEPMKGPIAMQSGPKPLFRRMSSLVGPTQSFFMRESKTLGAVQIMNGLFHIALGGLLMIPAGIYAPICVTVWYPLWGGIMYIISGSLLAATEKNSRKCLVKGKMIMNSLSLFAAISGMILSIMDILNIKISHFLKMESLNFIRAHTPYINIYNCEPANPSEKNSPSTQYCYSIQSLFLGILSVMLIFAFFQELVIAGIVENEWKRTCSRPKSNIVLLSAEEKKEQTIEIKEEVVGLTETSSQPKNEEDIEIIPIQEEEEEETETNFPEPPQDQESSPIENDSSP
Test: cell-based or functional assay
measured.quantity: Apoptosis (5 ug/ml), RCK8

{"binder": "humanized 1K1791 antibody sf (SdrL x FraH) (antibody, V domains shown, Kappa, gamma 1 construct; also called hz1791 sf; Sf043) VH: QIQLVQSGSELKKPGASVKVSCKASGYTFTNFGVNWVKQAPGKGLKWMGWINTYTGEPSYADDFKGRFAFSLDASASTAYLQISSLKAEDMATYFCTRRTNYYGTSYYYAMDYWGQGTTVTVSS VL: STVMTQSPDSLAVSLGERATINCKSSQSNSNDVAWYQQKPGQSPKVLIYFASNRYSGVPDRFSGSGYGTDFTLTISSLQAEDVAVYFCQQDYSSPLTFGAGTKLEIK", "measured.quantity": "Apoptosis (5 ug/ml), RCK8", "observed.value": "93 relative, m2B8 = 100"}
